system-under-test: EPHB1 (UniProt P54762)
Sequence (P54762 whole entry, looked up): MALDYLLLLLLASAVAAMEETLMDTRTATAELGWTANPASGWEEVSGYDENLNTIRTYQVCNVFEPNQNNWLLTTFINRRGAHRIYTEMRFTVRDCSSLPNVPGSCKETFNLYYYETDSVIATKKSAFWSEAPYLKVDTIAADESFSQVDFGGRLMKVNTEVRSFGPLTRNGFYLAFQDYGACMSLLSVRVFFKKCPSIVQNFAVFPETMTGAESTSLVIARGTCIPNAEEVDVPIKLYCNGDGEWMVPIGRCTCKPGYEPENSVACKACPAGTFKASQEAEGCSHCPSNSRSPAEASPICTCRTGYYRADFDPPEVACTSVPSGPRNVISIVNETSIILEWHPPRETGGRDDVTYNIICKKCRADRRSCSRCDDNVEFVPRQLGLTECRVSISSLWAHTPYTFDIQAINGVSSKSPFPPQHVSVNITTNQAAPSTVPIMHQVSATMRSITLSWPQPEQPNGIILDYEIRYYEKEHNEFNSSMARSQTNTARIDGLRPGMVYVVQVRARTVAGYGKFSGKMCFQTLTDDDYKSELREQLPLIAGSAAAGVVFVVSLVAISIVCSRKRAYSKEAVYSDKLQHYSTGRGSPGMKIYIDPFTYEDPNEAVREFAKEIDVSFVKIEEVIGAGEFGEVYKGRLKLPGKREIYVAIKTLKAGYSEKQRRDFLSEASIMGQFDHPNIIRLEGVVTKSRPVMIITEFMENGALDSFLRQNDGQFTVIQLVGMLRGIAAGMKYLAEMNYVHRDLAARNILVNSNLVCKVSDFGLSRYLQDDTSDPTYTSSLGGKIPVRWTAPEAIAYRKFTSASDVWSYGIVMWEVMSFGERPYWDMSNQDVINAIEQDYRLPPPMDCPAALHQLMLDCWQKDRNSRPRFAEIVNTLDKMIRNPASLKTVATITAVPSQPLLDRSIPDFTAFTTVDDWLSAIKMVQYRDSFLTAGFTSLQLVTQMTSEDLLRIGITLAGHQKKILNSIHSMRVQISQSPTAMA
test-details: phosphorylation enrichment, bacterial display (enrichment ratio); higher = better substrate or ligand; peptides without Tyr show the background;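 further: 11-residue human phosphosite peptides and single-mutation variants displayed on the E. coli surface, counted by deep sequencing, each peptide's frequency after selection divided by its frequency in the unselected input library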;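 further: frequency after pTyr selection over input frequency; kinase dosed for 20-30% of maximal phosphorylation in three min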
Listed here are sequences together with their documented phosphorylation enrichment.

Please review the entries below; each comes with its answer.
sequence-string	phosphorylation enrichment
MKGEFYRFLAE [YWHAG_Y131_D129E_YF]	0.426
KPRKLYTIKKP [BRD2_Y715_P714L]	0.374
VVEDGYEFFAK [PPP1CB_Y254]	0.473
TGGLEYIVPLM [CLCN4_Y548]	0.797
LAGRYYALKSM [CKB_Y174]	0.541
CKRQFYLYKGK [RSPO4_Y112]	0.333
ETLLFYGCRRS [POR_Y564_YF]	0.468
SREDIYKRNTE [PDE4DIP_Y45_I49T]	0.62

Input: State the recorded phosphorylation enrichment for this entry: MENFIYESMRY [CYP19A1_Y361]
Output: 5.46

Input: State the recorded phosphorylation enrichment for this entry: PEADKYRLPYA [FGG_Y300_T303P]
Output: 0.89

Input: State the recorded phosphorylation enrichment for this entry: LQPNNCQFCGG [CSF1R_Y969_Y969C]
Output: 0.735
